Listed here: items and their measured Mimimum Inhibitory Concentrations, VIM-2.
# Tested on: Isogenic E. coli J58 strain carrying VIM-2
# assay-text: MIC determination, isogenic E. coli strains
# Assay type: cell-based
# stated-conditions: isogenic E. coli strain, VIM-2; CAMH broth, 20 μM Apo-Transferrin, 37° C., 18 hours
# output: bare number, implied unit microgram/mL

Past entries and their recorded results:
compound	reported
CC(C)(O/N=C(\C(=O)N[C@@H]1C(=O)N2C(C(=O)O)=C(C=Cc3ccc(C[N+]4(C)CCc5cc(O)c(O)cc5C4)cc3)CS[C@H]12)c1nsc(N)n1)C(=O)O (mixture of isomers) [Compound 437]	1
CC(C)(O/N=C(\C(=O)N[C@@H]1C(=O)N2C(C(=O)O)=C(C=Cc3ccc(C[N+]4(C5CCC5)CCc5ccc(O)c(O)c5C4)cc3)CS[C@H]12)c1csc(N)n1)C(=O)O (mixture of isomers) [Compound 444]	0.5

Look up and report measured Mimimum Inhibitory Concentrations, VIM-2 for this entry: CC(C)(O/N=C(\C(=O)N[C@@H]1C(=O)N2C(C(=O)O)=C(C=Cc3ccc(C[n+]4ccc(O)c(O)c4)cc3)CS[C@H]12)c1csc(N)n1)C(=O)O (mixture of isomers) [Compound 443]
0.25
